Sourced from ChEMBL document CHEMBL1949611

- Species on record: Rattus norvegicus
- ASSAY_PROTOCOL: Activity of rat glutaryl-co A dehydrogenase expressed in Escherichia coli BL21

- COMPOUND: "CCCC/C=C/CC(=O)SCCNC(=O)CCNC(=O)C(O)C(C)(C)COP(=O)(O)OP(=O)(O)OC[C@H]1O[C@@H](n2cnc3c(N)ncnc32)[C@H](O)[C@@H]1OP(=O)(O)O (stereo not given in full)"
  kcat: "0.041 s⁻¹"
- COMPOUND: "CCCCCC/C=C/CC(=O)SCCNC(=O)CCNC(=O)C(O)C(C)(C)COP(=O)(O)OP(=O)(O)OC[C@H]1O[C@@H](n2cnc3c(N)ncnc32)[C@H](O)[C@@H]1OP(=O)(O)O (stereo not given in full)"
  kcat: "0.02 s⁻¹"
- COMPOUND: "CCCCCCCCCC(=O)SCCNC(=O)CCNC(=O)C(O)C(C)(C)COP(=O)(O)OP(=O)(O)OC[C@H]1O[C@@H](n2cnc3c(N)ncnc32)[C@H](O)[C@@H]1OP(=O)(O)O (stereo not given in full)"
  kcat: "0.18 s⁻¹"
- COMPOUND: "CCCCCC(=O)SCCNC(=O)CCNC(=O)C(O)C(C)(C)COP(=O)(O)OP(=O)(O)OC[C@H]1O[C@@H](n2cnc3c(N)ncnc32)[C@H](O)[C@@H]1OP(=O)(O)O (stereo not given in full)"
  kcat: "2.1 s⁻¹"
- COMPOUND: "CC/C=C/CC(=O)SCCNC(=O)CCNC(=O)C(O)C(C)(C)COP(=O)(O)OP(=O)(O)OC[C@H]1O[C@@H](n2cnc3c(N)ncnc32)[C@H](O)[C@@H]1OP(=O)(O)O (stereo not given in full)"
  kcat: "0.099 s⁻¹"
